System: OVCAR-3 ovarian
Assay Details: NCI tumour cell line growth inhibition, 48 h
// reported TGI for each item listed
I only need the number, in µM, no unit after it.

Some entries whose results are on file:
O=c1oc2cc(O)ccc2cc1-c1nc2ccccc2s1; 45.6
O=C1CSC(=S)N1Cc1cccnc1; 12.1
Cc1nc(N)sc1N=Nc1cc(Cl)c([N+](=O)[O-])cc1Cl; 40

Input line: Specify measured TGI for `CC(C)(C)c1cn2cccc(C(=O)N3CCN(CC(=O)Nc4ccc(Cl)cc4C(=O)c4ccccc4Cl)CC3)c2n1` .
Output line: 15.5

Input line: Recall and state the measured TGI for `O=C(Nc1cccc([N+](=O)[O-])c1)c1ccc2ccccc2c1O` .
Output line: 8.83

====

Collected TGI values appear next to each entry.
Tested on: HS 578T breast
Assay Details: NCI tumour cell line growth inhibition, 48 h

# count of solved cases: 6
O=c1[nH]c(=O)n(C2OC(CO)C(O)C2O)cc1OCCc1ccccc1 (stereo unspecified); > 100 µM
O=C1/C(=C/c2ccc(Cl)cc2)CN(Cc2cn(CCNc3ccnc4cc(Cl)ccc34)nn2)C/C1=C\c1ccc(Cl)cc1; 13.5 µM
CC(C)=CCc1ccc(O)c(=O)cc1C(C)C; > 100 µM
Cn1ccnc1C(=O)/C=C/c1ccc(C(=O)Nc2ccccc2O)cc1; 15.9 µM
O=C1Nc2ccccc2/C1=C/c1cn(C(=O)c2c(Cl)cccc2Cl)c2ccccc12; 8.98 µM
O=NNc1cnccn1; > 1250 µM

Input line: Tell us which TGI value is on record for `CCOC(=O)NC(NNc1ccc([N+](=O)[O-])cc1[N+](=O)[O-])(C(F)(F)F)C(F)(F)F`
Output line: > 100 µM

Input line: Write down TGI measured for item `CCSc1nc(N2CCCCC2)c2cn[nH]c2n1`
Output line: > 100 µM

Input line: Read the entry N#CCC12CC=CCC1=C(O)C(=O)c1ccc(O)cc12 (stereo unspecified) and write its reported TGI.
Output line: > 100 µM

====

Test system: TK-10 renal
Assay Details: NCI tumour cell line growth inhibition, 48 h
Here the recorded GI50 is given for each entry.

CCOCC(=O)N[C@H]1CCc2cc(OC(=O)COCC)c(OC)c(OC)c2-c2ccc(SC)c(=O)cc21; 14.9 µM
COc1ccc(/C(=N\O)c2cc(OC)c(OC)c(OC)c2)c(OC)c1N; > 100 µM
CCCCCCCCCCCCSC(=NC)NC; 1.71 µM
CC(C)(C)c1cn2cccc(C(=O)N3CCN(CC(=O)Nc4ccc(Cl)cc4C(=O)c4ccccc4Cl)CC3)c2n1; 16 µM

Note: attention shifts to another entry.
Input line: Name the recorded GI50 of the item `Cc1cc(NCCCCNc2ccnc3cc(Cl)ccc23)nc(Nc2ccc(C(=O)N3CCCC3)cc2)n1` in your answer.
Output line: 1.84 µM

====

log10 of TGI: recorded values
System: UACC-257 melanoma
Assay Details: NCI tumour cell line growth inhibition, 48 h
Plainly stated, the numbers are log10 of TGI given in µM.

Use the examples below as a reference point.
Cc1cc(NS(=O)(=O)c2ccc(NC(=O)c3cccc4cc5ccccc5nc34)cc2)no1; 1.94
O=c1[nH]cc(N(CCCl)CCCl)c(=O)[nH]1; 2.20
CCCC(=O)Nc1cc([N+](=O)[O-])c([N+](=O)[O-])cc1OC; 1.55
O=C(CC(O)c1ccncc1)c1ccccc1 (centres undefined); 1.91
O=C(Nc1ccc(Cl)cc1)c1ccc([N+](=O)[O-])o1; 0.72

Input line: Supply measured log10 of TGI of COP(=O)(OC)C(O)/C=C(\Cl)c1ccc(Cl)cc1 (centres undefined) in your reply.
Output line: 1.93

Input line: Item `CN1C(=O)c2cc([N+](=O)[O-])ccc2[C@H]2C(=O)c3cc4c(cc3[C@H]21)OCO4` : provide log10 of TGI
Output line: 0.52

Input line: Please give measured log10 of TGI of the following entry: `COc1cc(/C=C/c2sc3ccccc3[n+]2C)ccc1N(C)C`
Output line: 1.36

====

Tested on: EKVX NSCLC
Assay Details: NCI tumour cell line growth inhibition, 48 h
Quantity Kind: TGI

Examples with their reported TGI follow.
N#CCC12CC=CCC1=C(O)C(=O)c1ccc(O)cc12 (stereo not given); > 100 µM
CC(=O)NC(CCCCNC(=O)OC(C)(C)C)C(=O)O (stereo not given); > 100 µM
O=C1NC(N/N=C/c2ccccc2)=N/C1=C\c1cccs1; 47.3 µM
COC(=O)c1c(C)cc2c(c1O)C1(O)C(=O)c3cc4c(c(O)c3C(=O)C1(OC)C(O)C2)C(=O)C=C(NC1OC(C)C(OC)C(O)C1OC)C4=O (stereo not given); 0.864 µM
Cc1cc(Cl)ccc1NC(=O)CC1SC(N)=NC1=O (stereo not given); > 100 µM
O=c1[nH]c(=O)n(C2OC(CO)C(O)C2O)cc1OCCc1ccccc1 (stereo not given); > 100 µM
O=c1oc2cc(O)ccc2cc1-c1nc2ccccc2s1; 85.9 µM
CC(C)[Si](OCC1CC(C[C@H]2CC(C[C@H]3C[C@@H](CO[Si](C(C)C)(C(C)C)C(C)C)OC(C)(C)O3)OC(C)(C)O2)OC(C)(C)O1)(C(C)C)C(C)C (stereo not given in full); > 100 µM
CC(C)CCNC(=O)c1ccc(CNC(=O)/C=C/c2csc(-c3ccccc3)n2)cc1; > 100 µM
COc1ccc(/C=C(\C(=O)OCC(C)C)c2ccc(OC)c(OC)c2)cc1OC; > 100 µM

Input line: Identify the reported TGI for the following entry. `O=c1c2ccccc2c2c1c1c3ccccc3c(=O)c1c1c3ccccc3c(=O)c21`
Output line: > 100 µM

Input line: For `CC(=O)[O-].[Ni].c1ccc(/C(=N\Nc2ccccn2)c2ccccn2)cc1` , write its TGI.
Output line: 55.5 µM

Input line: Hello, please tell me recorded TGI for this one: `C=CCOC(=O)CCCCCCCCCCCCCCCOC(=O)c1c(CCC[C@@H](C)O[Si](C)(C)C(C)(C)C)nc(=O)n2c1CC[C@H]2CC1(CC/C=C\[C@H](CC)O[Si](C(C)C)(C(C)C)C(C)C)OCCO1`
Output line: > 100 µM

Input line: Find the measured TGI of `CNc1cccnc1/C=N/NC(N)=S` and report it.
Output line: > 10 µM

Input line: Complete the entry with TGI for `O=C(O)CSc1nnc(CCCCCCCCc2nnc(SCC(=O)O)o2)o1`
Output line: > 100 µM

Input line: Check the records and state TGI for `COc1ccc(C(=O)/C=C/c2ccc(OCC(=O)O)cc2)cc1`
Output line: > 100 µM

====

Here, each record is paired with measured TGI data.
Test system: SF-295 CNS
Assay Details: NCI tumour cell line growth inhibition, 48 h
Respond with the bare value in µM.

COc1ccc2c[n+](C)c3c4cc(OC)c(OC)cc4ccc3c2c1; 34.8

Shift focus to the following entry.
Input line: State TGI (SF-295 CNS) of `O=C(Nc1ccc(Cl)cc1)c1ccc([N+](=O)[O-])o1` .
Output line: 12.3

====

Here, each record is paired with measured TGI data.
Test system: HCT-15 colon
Assay Details: NCI tumour cell line growth inhibition, 48 h
Reply numerically in µM, unit not repeated.

Known TGI results, listed for orientation:
COCC(=O)OC1CCn2c1nc1c2C(=O)C(C)=C(NC(C)=O)C1=N (stereo not drawn); 27.5
COc1ccc(Cn2cc3c(c2-c2ccc(O)cc2)CCc2cnoc2-3)cc1; 21.6
CC(C)/C(Cl)=N\OC(=O)Nc1ccc(F)c([N+](=O)[O-])c1; 6.75
O=C(N/N=c1/ccoc2cccnc12)N1CCN(c2ncccn2)CC1; 10.1
CC1(C)CCCCCC(C)(CCCCCCCCCCCO)C1=O (stereo not drawn); 29.7

Input line: Fill in TGI for `Cc1cc(N(CCC#N)CCC#N)ccc1/C(N=Nc1ccccc1)=N\NC(=O)c1ccccc1` tested with HCT-15 colon.
Output line: 48

Input line: Give HCT-15 colon TGI for the following molecule: `O=C(N1CCC(CN=c2cc3n(-c4ccc(Cl)cc4)c4ccccc4nc-3cc2Nc2ccc(Cl)cc2)CC1)N1CC1`
Output line: 1.87

Input line: Provide TGI, system HCT-15 colon, entry `O=c1[nH]cc(N(CCCl)CCCl)c(=O)[nH]1`
Output line: 251

====

Test system: ACHN renal
Assay Details: NCI tumour cell line growth inhibition, 48 h
Classes by TGI: bucket A (below 20 µM), bucket B (20 µM to below 40 µM), bucket C (40 µM or more)

Answered cases to consult:
CCN(CC)CCNc1ccc2ncn3c4c(OC)cccc4c(=O)c1c23; bucket B
Cn1cnc([N+](=O)[O-])c1Sc1nc2cccnc2s1; bucket C
Oc1ccccc1Nc1nc2ccccc2c2occc12; bucket A

Input line: # classify by TGI band: `O=C(N/N=C/C=C/c1ccc([N+](=O)[O-])o1)c1ccc(Br)s1`
Output line: bucket B
